Just for reference, ChEMBL document CHEMBL3112462 is where these values come from.

Assay: Cytotoxicity against African green monkey Vero cells assessed as cell viability after 48 hrs by SRB assay
Type: cell-based
Settings: chlorocebus sabaeus
measured-property: CC50 at 48 h

1. CC(=O)Nc1ncc([N+](=O)[O-])s1 [NITHIAMIDE]; > 1000 µM
2. O=C(Nc1ccc(Cl)cc1)Nc1ncc([N+](=O)[O-])s1; > 1000 µM
3. CCCCOc1ccc(NC(=O)Nc2ncc([N+](=O)[O-])s2)cc1; 58 µM
4. O=C(Nc1ccc(F)cc1)Nc1ncc([N+](=O)[O-])s1; > 1000 µM
5. CCCCC(=O)Nc1ncc([N+](=O)[O-])s1; > 1000 µM

-- ask Supply recorded CC50 at 48 h for N=C(N)c1ccc(OCCCCCOc2ccc(C(=N)N)cc2)cc1 [PENTAMIDINE] here.
-- reply 47 µM

-- ask Hello, please tell me recorded CC50 at 48 h for this one: COC(=O)Nc1ncc([N+](=O)[O-])s1
-- reply 2460 µM

-- ask # return recorded CC50 at 48 h for entry CC(=O)Oc1ccccc1C(=O)Nc1ncc([N+](=O)[O-])s1 [NITAZOXANIDE]
-- reply 833 µM

-- ask Return reported CC50 at 48 h. Input compound: O=C(Nc1ncc([N+](=O)[O-])s1)NC1CCCCC1
-- reply > 1000 µM

-- ask Look up and state reported CC50 at 48 h for CCCCCCCCCCCCCCCC(=O)Nc1ncc([N+](=O)[O-])s1
-- reply > 1000 µM

* * *

The entries below come with measured CC50 at 48 h values attached.
Experiment: Cytotoxicity against African green monkey Vero cells assessed as cell viability after 48 hrs by SRB assay
Assay type: cell-based
Settings: chlorocebus sabaeus
I only need the number, in µM, no unit after it.

1) O=C(Cn1ccnc1[N+](=O)[O-])NCc1ccccc1; 14
2) Nc1ncc([N+](=O)[O-])s1; 441
3) CCOC(=O)C(=O)Nc1ncc([N+](=O)[O-])s1; 1420

Kindly review the next compound as well.
-- ask Tell me CC50 at 48 h reported for Cc1ncc([N+](=O)[O-])n1CCO
-- reply 387

* * *

Recorded pIC50 values for a group of compounds are listed next.
System: Trichomonas vaginalis
Experiment: Antimicrobial activity against Trichomonas vaginalis GT3 incubated for 48 hrs followed by compound washout measured after 48 hrs
Format: functional, organism-based
Details: GT3, 48 h, read-out: IC50
// pIC50 here means minus log10 of the molar concentration (mol/L)

1. O=C(Nc1ccc(F)cc1)Nc1ncc([N+](=O)[O-])s1; 5.91

-- ask Return the recorded pIC50 value; entry: O=C(Nc1ccc([N+](=O)[O-])cc1)Nc1ncc([N+](=O)[O-])s1
-- reply 6.02

-- ask Determine from records and report pIC50 for COc1ccc(NC(=O)Nc2ncc([N+](=O)[O-])s2)cc1
-- reply 5.89

-- ask Output pIC50 of O=C(Nc1ccc(Cl)cc1)Nc1ncc([N+](=O)[O-])s1
-- reply 5.99
